B1: SLC35F2 (parent)
chain: FVAFALCMFCLYSFMPLVIKVTSA

variants of: B1; assay: protein stability index of a GFP-peptide fusion (GPS, HEK-293T) (PSI 1-6); higher = more stable; settings: c terminus: a fixed tail appended;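 further: lentivirally expressed fusions sorted by FACS into six bins by GFP to DsRed ratio, PSI derived from sequencing read proportions per bin multiplied by bin number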
ASSAY_READOUT: protein stability index
// print number alone

Consider the following illustrative entries.
# MUTANT_DESIGNATION, ASSAY_READOUT, OBSERVED_VALUE
data = [
    ("K20T", "protein stability index", 3.12),
    ("F4A", "protein stability index", 2.54),
    ("K20C", "protein stability index", 3.38),
]

# context switch: different variant, same protein stability index
The reported protein stability index of the variant F1Y was 2.99

All values here come from the supplement of paper PMC10567573.
